target: Maternal embryonic leucine zipper kinase (Homo sapiens)
Sequence (Q14680 whole entry): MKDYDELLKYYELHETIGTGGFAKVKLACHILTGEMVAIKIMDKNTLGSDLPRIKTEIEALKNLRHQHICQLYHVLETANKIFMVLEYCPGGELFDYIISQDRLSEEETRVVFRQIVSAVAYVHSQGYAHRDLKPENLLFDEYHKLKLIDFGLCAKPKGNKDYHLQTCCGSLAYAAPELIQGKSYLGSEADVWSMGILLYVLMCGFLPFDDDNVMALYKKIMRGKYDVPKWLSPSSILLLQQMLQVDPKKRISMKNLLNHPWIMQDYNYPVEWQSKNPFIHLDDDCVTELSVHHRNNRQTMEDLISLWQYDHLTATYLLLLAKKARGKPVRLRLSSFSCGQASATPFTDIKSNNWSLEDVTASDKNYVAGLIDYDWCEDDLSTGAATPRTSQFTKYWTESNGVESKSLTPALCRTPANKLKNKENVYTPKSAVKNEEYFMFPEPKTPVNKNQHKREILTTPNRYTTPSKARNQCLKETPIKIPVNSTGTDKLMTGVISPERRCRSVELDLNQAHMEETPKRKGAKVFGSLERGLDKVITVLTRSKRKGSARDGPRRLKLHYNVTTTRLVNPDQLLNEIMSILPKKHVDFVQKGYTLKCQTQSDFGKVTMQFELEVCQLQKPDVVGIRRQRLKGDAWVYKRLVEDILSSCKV
property-name: IC50 (nM)
Please reply with the bare figure in nM and do not write the unit itself.

Field request: IC50 | item: Cl.O=C1Nc2ccc(F)cc2/C1=C1/Nc2ccccc2/C1=N\OCCN1CCNCC1
5.54

---

test: Acute toxicity in ICR mouse assessed as median lethal dose; settings: in vivo
property-name: LD50
Provide the measurement as a number trailed by its unit.

Field request: LD50 | item: Cl.O=C1Nc2ccc(F)cc2/C1=C1/Nc2ccccc2/C1=N\OCCN1CCNCC1
4950 mg/kg

---

target: Receptor-type tyrosine-protein kinase FLT3 (Homo sapiens, UniProt P36888, ITD); assay: Binding affinity to human FLT3 ITD mutant in presence of ATP by Lanthascreen Eu kinase binding assay
Sequence (P36888 whole entry, looked up, change not shown): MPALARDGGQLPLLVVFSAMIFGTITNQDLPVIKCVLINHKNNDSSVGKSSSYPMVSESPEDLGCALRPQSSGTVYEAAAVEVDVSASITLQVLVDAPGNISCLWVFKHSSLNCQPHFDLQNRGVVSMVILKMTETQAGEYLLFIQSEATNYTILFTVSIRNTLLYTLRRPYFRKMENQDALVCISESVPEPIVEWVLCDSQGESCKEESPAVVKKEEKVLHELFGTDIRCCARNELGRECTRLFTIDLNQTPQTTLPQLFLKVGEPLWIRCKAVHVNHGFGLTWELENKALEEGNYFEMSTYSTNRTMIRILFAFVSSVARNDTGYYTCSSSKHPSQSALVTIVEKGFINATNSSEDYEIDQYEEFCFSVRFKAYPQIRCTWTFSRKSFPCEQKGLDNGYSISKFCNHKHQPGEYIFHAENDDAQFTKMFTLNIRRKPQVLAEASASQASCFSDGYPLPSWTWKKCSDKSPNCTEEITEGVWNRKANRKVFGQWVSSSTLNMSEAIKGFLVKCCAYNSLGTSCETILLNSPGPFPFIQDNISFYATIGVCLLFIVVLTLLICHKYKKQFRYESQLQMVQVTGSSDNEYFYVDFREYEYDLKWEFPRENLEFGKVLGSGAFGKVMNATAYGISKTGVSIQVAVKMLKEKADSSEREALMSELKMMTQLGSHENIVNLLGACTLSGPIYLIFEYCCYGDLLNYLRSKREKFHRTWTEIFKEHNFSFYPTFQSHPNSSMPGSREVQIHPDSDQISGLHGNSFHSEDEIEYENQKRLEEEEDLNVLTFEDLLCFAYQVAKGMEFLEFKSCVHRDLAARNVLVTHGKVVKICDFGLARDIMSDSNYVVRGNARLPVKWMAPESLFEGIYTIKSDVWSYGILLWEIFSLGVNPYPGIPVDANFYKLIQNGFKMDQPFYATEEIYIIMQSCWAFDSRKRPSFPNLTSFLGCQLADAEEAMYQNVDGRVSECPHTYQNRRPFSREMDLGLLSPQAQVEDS
pKd: −log10 of the molar value.
property-name: pKd

Reported pKd for Receptor-type tyrosine-protein kinase FLT3 (Homo sapiens, UniProt P36888, ITD), given Cl.O=C1Nc2ccc(F)cc2/C1=C1/Nc2ccccc2/C1=N\OCCN1CCNCC1 ?
> 9.60

Cited source for all entries: ChEMBL document CHEMBL4765285
